Measured IC50 accompanies every entry in the list below.
# Subject Of Test: T1, human PD-1 expressed on cells (human, UniProt Q15116 25-288)
# T1 construct: whole, on cells; also called CHO-K1/huPD-1; CHO-K1-hPD-1 cells
# Test Description: cell RBA FACS; competitor PD-L1/Fc
Entry rule: numbers only, all in nM.

Solved cases (4 shown):
HumAb713-11 (antibody, human IgG1, kappa, L234A L235A, V domains shown, humanized mAb713) VH: EVQLVESGGGLVQPGGSLRLSCAASGFTSSDYGMHWVRQAPGKGLEWVSYISSGSYTIYYADTVKGRFTISRDNAKNSLYLQMNSLRDEDTAVYYCAKRGGSSHVNVMDYWGQGTTVTVSS VL: DIQMTQSPSSLSASVGDRVTITCKASDHINNWLAWYQQKPGKAPKLLISGATSLETGVPSRFSGSGSGTDYTFTISSLQPEDIATYYCQQYWSPPYTFGGGTKVEIKR :: 0.51
HumAb713-10 (antibody, human IgG1, kappa, L234A L235A, V domains shown, humanized mAb713) VH: EVQLVESGGGLVQPGGSLRLSCAASGFTFSDYGMHWVRQAPGKGLEWVSYISSGSYTIYYADTVKGRFTISRDNAKNSLYLQMNSLRDEDTAVYYCAKRGGSSHVNVMDYWGQGTTVTVSS VL: DIQMTQSPSSLSASVGDRVTITCKASDHINNWLAWYQQKPGKAPKLLISGATSLETGVPSRFSGSGSGTDYTFTISSLQPEDIATYYCQQYWSPPYTFGGGTKVEIKR :: 0.8
HumAb713-7 (antibody, human IgG1, kappa, L234A L235A, V domains shown, humanized mAb713) VH: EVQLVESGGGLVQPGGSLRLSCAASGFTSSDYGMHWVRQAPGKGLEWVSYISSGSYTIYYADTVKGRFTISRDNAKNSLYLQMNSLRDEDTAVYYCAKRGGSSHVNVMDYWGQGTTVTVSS VL: DIQMTQSPSSLSASVGDRVTITCKASDHINNWLAWYQQKPGKAPKLLIYGATSLETGVPSRFSGSGSGTDYTFTISSLQPEDIATYYCQQYWSPPYTFGGGTKVEIKR :: 0.76
HumAb713-4 (antibody, human IgG1, kappa, L234A L235A, V domains shown, humanized mAb713) VH: EVQLVESGGGLVQPGGSLRLSCAASGFTSSDYGMHWVRQAPGKGLEWVAYISSGSYTIYYADTVKGRFTISRDNAKNSLYLQMNSLRDEDTAVYYCAKRGGSSHVNVMDYWGQGTTVTVSS VL: DIQMTQSPSSLSASVGDRVTITCKASDHINNWLAWYQQKPGKAPKLLIYGATSLETGVPSRFSGSGSGTDFTFTISSLQPEDIATYYCQQYWSPPYTFGGGTKVEIKR :: 1.06

Let's switch to this binder now.
// query Need IC50, item HumAb713-12 (antibody, human IgG1, kappa, L234A L235A, V domains shown, humanized mAb713) VH: EVQLVESGGGLVQPGGSLRLSCAASGFTSSDYGMHWVRQAPGKGLEWVAYISSGSYTIYYADTVKGRFTISRDNAKNSLYLQMNSLRDEDTAVYYCAKRGGSSHVNVMDYWGQGTTVTVSS VL: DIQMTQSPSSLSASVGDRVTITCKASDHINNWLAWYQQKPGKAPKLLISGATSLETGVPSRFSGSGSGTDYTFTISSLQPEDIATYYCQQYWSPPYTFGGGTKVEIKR
// result 0.94
